# system: mTOR (human recombinant aa mTOR 1360-2549) (Homo sapiens (Human), UniProt P42345)
# Sequence (P42345 1360-2549): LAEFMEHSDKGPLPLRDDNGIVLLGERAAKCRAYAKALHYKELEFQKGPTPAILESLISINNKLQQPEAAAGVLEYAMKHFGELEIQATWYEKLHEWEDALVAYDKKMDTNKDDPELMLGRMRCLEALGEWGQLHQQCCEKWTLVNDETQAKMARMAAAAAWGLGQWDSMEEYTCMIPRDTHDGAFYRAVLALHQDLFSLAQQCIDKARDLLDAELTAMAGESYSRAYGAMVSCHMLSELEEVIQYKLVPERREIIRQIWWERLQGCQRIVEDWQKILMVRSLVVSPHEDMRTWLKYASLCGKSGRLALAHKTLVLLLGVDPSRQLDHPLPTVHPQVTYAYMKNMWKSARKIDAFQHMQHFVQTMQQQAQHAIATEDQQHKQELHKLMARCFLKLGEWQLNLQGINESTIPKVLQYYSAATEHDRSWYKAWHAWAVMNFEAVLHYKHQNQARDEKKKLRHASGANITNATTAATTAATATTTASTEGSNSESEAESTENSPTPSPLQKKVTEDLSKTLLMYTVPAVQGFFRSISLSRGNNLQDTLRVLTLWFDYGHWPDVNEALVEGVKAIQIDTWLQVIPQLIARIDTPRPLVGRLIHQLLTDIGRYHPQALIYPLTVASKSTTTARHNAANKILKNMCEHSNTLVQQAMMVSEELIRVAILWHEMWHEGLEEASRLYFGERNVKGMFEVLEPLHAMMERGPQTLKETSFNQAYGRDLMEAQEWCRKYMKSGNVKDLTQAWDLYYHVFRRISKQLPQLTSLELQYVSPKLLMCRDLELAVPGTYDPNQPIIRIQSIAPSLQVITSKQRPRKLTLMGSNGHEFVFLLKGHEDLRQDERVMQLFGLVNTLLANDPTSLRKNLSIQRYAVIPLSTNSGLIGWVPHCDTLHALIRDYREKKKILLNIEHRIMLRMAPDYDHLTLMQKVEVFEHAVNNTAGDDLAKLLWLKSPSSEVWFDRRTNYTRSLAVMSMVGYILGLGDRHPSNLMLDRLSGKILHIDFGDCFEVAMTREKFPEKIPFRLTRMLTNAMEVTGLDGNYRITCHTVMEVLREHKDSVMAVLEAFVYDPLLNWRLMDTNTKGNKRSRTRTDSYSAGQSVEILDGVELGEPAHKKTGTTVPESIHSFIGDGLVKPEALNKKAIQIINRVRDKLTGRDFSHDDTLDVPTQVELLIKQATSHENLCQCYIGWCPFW
# assay-remarks: mTOR enzymatic test by TR-FRET (phosphorylation of GFP-4EBP1)
# Format: biochemical
# Experimental: Model 1: mTOR Enzymatic Test by TR-FRET (Time-resolved Fluorescence Resonance Energy Transfer). The test detects the phosphorylation of the substrate GFP-4EBP1 using a terbium-labelled antibody that is specific for the phospho-Thr46 epitope. Binding of the Tb-antibody to the phosphorylated GFP peptide allows the transfer of energy from Tb, excited at 340 nm, to GFP with an increase in the fluorescence emission of the GFP at 520 nm. […] The mixture is incubated for 30 minutes at room temperature. […]
pIC50: −log10 of the molar value.
Listed next: entries and their corresponding pIC50.

{"columns": ["input-smiles", "system", "pIC50"],
 "data": [
  ["CCN1CC(C)(C)Oc2nc(N3CCOC[C@@H]3C)nc(-c3ccc(NC(=O)Nc4ccc(N5CCOCC5)cc4)c(F)c3)c2C1=O", "mTOR (human recombinant aa mTOR 1360-2549) (Homo sapiens (Human), UniProt P42345)", 7.12],
  ["CCN1CC(C)(C)Oc2nc(N3CCOC[C@@H]3C)nc(-c3ccc(NC(=O)Nc4cccc(OC(F)F)c4)c(F)c3)c2C1=O", "mTOR (human recombinant aa mTOR 1360-2549) (Homo sapiens (Human), UniProt P42345)", 6.85],
  ["CCN1CC(C)(C)Oc2nc(N3CC4CCC(C3)O4)nc(-c3ccc(NC(=O)NCC(C)(C)O)c(F)c3)c2C1=O", "mTOR (human recombinant aa mTOR 1360-2549) (Homo sapiens (Human), UniProt P42345)", 5.97],
  ["CCN1CC(C)(C)Oc2nc(N3C4CCC3COC4)nc(-c3ccc(NC(=O)Nc4ccncc4)c(F)c3)c2C1=O", "mTOR (human recombinant aa mTOR 1360-2549) (Homo sapiens (Human), UniProt P42345)", 7.70],
  ["CCN1CC(C)(C)Oc2nc(N3CC4CCC(C3)O4)nc(-c3ccc(NC(=O)Nc4ccnc(N5CC6CCC(C5)O6)c4)c(F)c3)c2C1=O", "mTOR (human recombinant aa mTOR 1360-2549) (Homo sapiens (Human), UniProt P42345)", 6.76],
  ["C[C@H]1COCCN1c1ccc(NC(=O)Nc2ccc(-c3nc(N4C5CCC4COC5)nc4c3C(=O)N(C)CC(C)(C)O4)cc2F)cn1", "mTOR (human recombinant aa mTOR 1360-2549) (Homo sapiens (Human), UniProt P42345)", 7.19],
  ["CCN1CC(C)(C)Oc2nc(N3CCOC[C@@H]3C)nc(-c3ccc(NC(=O)Nc4cn(C)cn4)c(F)c3)c2C1=O", "mTOR (human recombinant aa mTOR 1360-2549) (Homo sapiens (Human), UniProt P42345)", 7.59],
  ["CCNC(=O)Nc1ccc(-c2nc(N3CC4CCC(C3)O4)nc3c2C(=O)N(C[C@@H]2CCCN2)CC(C)(C)O3)cc1F", "mTOR (human recombinant aa mTOR 1360-2549) (Homo sapiens (Human), UniProt P42345)", 6.14],
  ["CCN1CC(C)(C)Oc2nc(N3CCOC[C@@H]3C)nc(-c3ccc(NC(=O)Oc4cccc(OC)c4)cc3)c2C1=O", "mTOR (human recombinant aa mTOR 1360-2549) (Homo sapiens (Human), UniProt P42345)", 6.01],
  ["CCN1CC(C)(C)Oc2nc(N3CC4CCC(C3)O4)nc(-c3ccc(NC(=O)Nc4cnc(N5CCOCC5)cn4)c(F)c3)c2C1=O", "mTOR (human recombinant aa mTOR 1360-2549) (Homo sapiens (Human), UniProt P42345)", 7.17],
  ["CCN1CC(C)(C)Oc2nc(N3CC4CCC(C3)O4)nc(-c3ccc(NC(=O)Nc4cccnc4)cc3)c2C1=O", "mTOR (human recombinant aa mTOR 1360-2549) (Homo sapiens (Human), UniProt P42345)", 7.70],
  ["CCN1CC(C)(C)Oc2nc(N3CC4CCC(C3)O4)nc(-c3ccc(NC(=O)NCCF)cc3)c2C1=O", "mTOR (human recombinant aa mTOR 1360-2549) (Homo sapiens (Human), UniProt P42345)", 7.66],
  ["CCN1CC(C)(C)Oc2nc(N3CC4CCC(C3)O4)nc(-c3ccc(NC(=O)Nc4cccc(OC(F)F)c4)cc3)c2C1=O", "mTOR (human recombinant aa mTOR 1360-2549) (Homo sapiens (Human), UniProt P42345)", 7.60],
  ["Cc1cc(NC(=O)Nc2ccc(-c3nc(N4CC5CCC(C4)O5)nc4c3C(=O)N(C)CC(C)(C)O4)cc2F)ccn1", "mTOR (human recombinant aa mTOR 1360-2549) (Homo sapiens (Human), UniProt P42345)", 7.24]
]}
